Assignment: determine reported refractive index for the given compounds.
# EXPERIMENT: refractive index (Na D-line) (dimensionless)
# STATED_CONDITIONS: 298.15 K; 101.33 kPa; Liquid; Standard Abbe refractometry
Lab note: jot the number down without any unit.

Query block: Any idea what refractive index was measured for CC(C)CCO [3-methylbutan-1-ol] ?
Result block: 1.4053

Query block: Any idea what refractive index was measured for CC(C)O [propan-2-ol] ?
Result block: 1.375

Query block: Any idea what refractive index was measured for CC(C)(C)O [2-methylpropan-2-ol] ?
Result block: 1.3851

Query block: Any idea what refractive index was measured for CCC(C)O (stereo unspecified) [butan-2-ol] ?
Result block: 1.3954

Query block: Any idea what refractive index was measured for CN1CCCC1=O [N-methylpyrrolidone] ?
Result block: 1.4674

Query block: Any idea what refractive index was measured for CC(C)CO [2-methyl-1-propanol] ?
Result block: 1.3939

###

# STATED_CONDITIONS: 303.15 K; 101.33 kPa; Liquid; Pycnometric method
Assignment: determine reported mass density for the given compounds.
Unit kg/m3 implied. Number only.

Query block: Any idea what mass density was measured for CN1CCCC1=O [N-methylpyrrolidone] ?
Result block: 1023.4

Query block: Any idea what mass density was measured for CC(C)(C)O [2-methylpropan-2-ol] ?
Result block: 776.16

Query block: Any idea what mass density was measured for CC(C)CCO [3-methylbutan-1-ol] ?
Result block: 801.76

Query block: Any idea what mass density was measured for CC(C)O [propan-2-ol] ?
Result block: 776.88

Query block: Any idea what mass density was measured for CCC(C)O (stereo unspecified) [butan-2-ol] ?
Result block: 798.92

Query block: Any idea what mass density was measured for CC(C)CO [2-methyl-1-propanol] ?
Result block: 794.34
